- Test system: panel of 10 persons
- experiment: Organoleptic taste evaluation of LAE (200 ppm) with masking agents in carbonated juice drink
- Assay type: in vivo, human
- conditions-used: test compound 1,000 ppm + 200 ppm LAE in juice drink; scale 1-no taste to 7-unbearable taste
readout-label: Organoleptic results

- CC1(C)[C@@H](O[C@H]2O[C@H](C(=O)O)[C@@H](O)[C@H](O)[C@H]2O[C@@H]2O[C@H](C(=O)O)[C@@H](O)[C@H](O)[C@H]2O)CC[C@]2(C)[C@H]3C(=O)C=C4[C@@H]5C[C@@](C)(C(=O)O)CC[C@]5(C)CC[C@@]4(C)[C@]3(C)CC[C@@H]12 [Glycyrrhizinate, monoammonium glycyrrhizinate]: 2
- CC(=O)[O-].[Na+] [sodium acetate]: 2.8
- N[C@@H](CCC(=O)[O-])C(=O)[O-].[Na+].[Na+] [sodium glutamate]: 5.0
- OC[C@H]1O[C@@H]2O[C@H]3[C@H](O)[C@@H](O)[C@@H](O[C@H]4[C@H](O)[C@@H](O)[C@@H](O[C@H]5[C@H](O)[C@@H](O)[C@@H](O[C@H]6[C@H](O)[C@@H](O)[C@@H](O[C@H]7[C@H](O)[C@@H](O)[C@@H](O[C@H]8[C@H](O)[C@@H](O)[C@@H](O[C@H]1[C@H](O)[C@H]2O)O[C@@H]8CO)O[C@@H]7CO)O[C@@H]6CO)O[C@@H]5CO)O[C@@H]4CO)O[C@@H]3CO: 2.1
